biological target: EGFR-L858R-T790M-C797S (Homo sapiens, UniProt P00533, C797S/L858R/T790M); construct: change the phosphorylation status of full-length EGFR proteins in the context of living cells; expressed in transfected cells; experiment: MaMTH / MaMTH-DS assay, EGFR-L858R-T790M-C797S bait with Shc1 prey; assay type: cell-based; conditions: retest in triplicate, MaMTH signal remaining (low = inhibition)
Observable: Average Percent (%)

// below: answered compounds
>  <Compound>
CCN(CC)c1ccc2cc(-c3nc4ccccc4o3)c(=O)oc2c1

>  <Measure unit>
%

>  <Average Percent>
27.8

$$$$
>  <Compound>
CC1CC(Nc2ccccc2)c2ccccc2N1C(=O)c1cccs1 (centres unmarked)

>  <Measure unit>
%

>  <Average Percent>
11.7

$$$$
>  <Compound>
C/C(=C\c1ccc(Cl)cc1)[N+](=O)[O-]

>  <Measure unit>
%

>  <Average Percent>
0.2

$$$$

(1) CO[C@@H]1[C@H](N(C)C(=O)c2ccccc2)C[C@H]2O[C@]1(C)n1c3ccccc3c3c4c(c5c6ccccc6n2c5c31)C(=O)NC4
(2) O=c1c(Cl)c(Cl)cnn1Cc1ccccc1
-- ask When their Average Percent values are compared, which is larger, 1 or 2 ? Selection: enter the item's label.
-- reply 1
(1: 10.5%, 2: 0.9%)

* * *

target: EGFR-WT (Homo sapiens); construct: change the phosphorylation status of full-length EGFR proteins in the context of living cells; expressed in transfected cells; assay: MaMTH assay, EGFR-WT bait with Shc1 prey; assay type: cell-based; details: EGFR-WT bait, Shc1 prey; retest in triplicate; MaMTH signal remaining (low = inhibition)
Observable: Average Percent (%)

// below: answered compounds
>  <Compound>
C/C(=C\c1ccc(Cl)cc1)[N+](=O)[O-]

>  <Measure unit>
%

>  <Average Percent>
0.9

$$$$
>  <Compound>
CCN(CC)c1ccc2cc(-c3nc4ccccc4o3)c(=O)oc2c1

>  <Measure unit>
%

>  <Average Percent>
105.3

$$$$

(a) CO[C@@H]1[C@H](N(C)C(=O)c2ccccc2)C[C@H]2O[C@]1(C)n1c3ccccc3c3c4c(c5c6ccccc6n2c5c31)C(=O)NC4
(b) CC1CC(Nc2ccccc2)c2ccccc2N1C(=O)c1cccs1 (centres unmarked)
(c) O=c1c(Cl)c(Cl)cnn1Cc1ccccc1
-- ask Rank descending by Average Percent. I'd appreciate it if you listed the labels in the requested order.
-- reply a, b, c
